Origin of the recorded values: PubChem BioAssay (NCATS)

Test: AP1 Signaling Pathway (AID 357);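 note: ME-180 reporter cells stimulated with EGF at its EC50 level; % is set by controls: 0 for no effect and ±100 for the full control effect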
Conditions: ME-180 (cervical carcinoma) AP-1-bla reporter, EGF-induced, beta-lactamase ratio, 5 h; at 7.69 µM (top of the series) unless noted
Results filed as inconclusive are left out.
attributeMeasured: activity change, negative = inhibition (%)

[
  {
    "compound": "COc1ncc2ncc(=O)n(CCC#N)c2n1",
    "reportedMeasurement": 1.28
  },
  {
    "compound": "O=C(Nc1cccc(F)c1)N1CCCC2(CCN(C(=O)c3cc(C(F)(F)F)cc(C(F)(F)F)c3)CC2)C1",
    "reportedMeasurement": -25.5
  },
  {
    "compound": "COc1cccc(-c2nccc(NC3CCNCC3)n2)c1",
    "reportedMeasurement": 6.93
  },
  {
    "compound": "Cc1cnc(CNc2ncnc3ccc(-c4cccc(C#N)c4)cc23)cn1",
    "reportedMeasurement": -21.7
  },
  {
    "compound": "O=C(c1csnn1)N1CCC2(CC1)CCN(C(c1ccccc1)c1ccccc1)CC2",
    "reportedMeasurement": -5.85
  },
  {
    "compound": "COc1cccc(Cn2c(=O)cnc3cnc(Nc4ccccc4)nc32)c1",
    "reportedMeasurement": -26.5
  },
  {
    "compound": "COCCn1c(=O)cnc2cnc(OCc3ccccc3)nc21",
    "reportedMeasurement": -3.32
  },
  {
    "compound": "CN(C)Cc1ccccc1-c1cncnc1NC1CC1",
    "reportedMeasurement": -1.86
  }
]

====

Target: Rap guanine nucleotide exchange factor 4 (Homo sapiens) (UniProt Q8WZA2)
Sequence (Q8WZA2 whole entry, looked up): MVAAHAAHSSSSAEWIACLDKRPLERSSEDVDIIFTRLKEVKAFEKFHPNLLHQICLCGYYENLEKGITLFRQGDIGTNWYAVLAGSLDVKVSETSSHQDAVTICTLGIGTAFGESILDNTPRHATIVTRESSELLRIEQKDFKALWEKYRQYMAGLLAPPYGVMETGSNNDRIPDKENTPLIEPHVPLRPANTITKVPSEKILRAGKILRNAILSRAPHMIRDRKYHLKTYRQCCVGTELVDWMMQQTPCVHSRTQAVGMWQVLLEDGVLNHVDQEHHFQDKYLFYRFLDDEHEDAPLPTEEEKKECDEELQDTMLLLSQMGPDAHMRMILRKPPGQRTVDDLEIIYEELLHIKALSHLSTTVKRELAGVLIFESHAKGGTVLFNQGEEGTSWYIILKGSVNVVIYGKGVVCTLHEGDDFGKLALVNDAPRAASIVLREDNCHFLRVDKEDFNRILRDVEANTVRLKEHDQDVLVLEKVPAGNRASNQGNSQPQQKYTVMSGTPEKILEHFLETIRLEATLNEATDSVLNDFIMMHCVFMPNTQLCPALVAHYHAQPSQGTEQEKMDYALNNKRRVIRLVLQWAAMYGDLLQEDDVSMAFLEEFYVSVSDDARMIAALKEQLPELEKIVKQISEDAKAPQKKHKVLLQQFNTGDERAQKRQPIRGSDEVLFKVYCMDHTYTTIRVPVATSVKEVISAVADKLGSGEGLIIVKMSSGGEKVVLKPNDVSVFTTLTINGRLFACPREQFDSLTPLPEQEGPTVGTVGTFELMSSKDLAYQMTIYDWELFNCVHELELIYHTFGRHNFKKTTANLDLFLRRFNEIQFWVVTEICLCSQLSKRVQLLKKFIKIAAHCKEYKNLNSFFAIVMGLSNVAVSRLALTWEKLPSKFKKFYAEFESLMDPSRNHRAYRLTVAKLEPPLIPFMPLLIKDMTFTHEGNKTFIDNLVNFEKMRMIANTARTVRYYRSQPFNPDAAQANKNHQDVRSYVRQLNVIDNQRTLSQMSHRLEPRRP
Test: Confirmatory qHTS for antagonist of cAMP-regulated guanine nucleotide exchange factor 4 (EPAC2) (AID 1645885); note: nearly all actives have a fitted effect of over 25% in size
Details: EPAC2 Rap1B-BODIPY-GDP exchange fluorescence, biochemical; series mostly up to 114 µM
Inconclusive results are not listed. Activity calls are given as the source filed them. Calls follow the shape of the dose curve; as a rule, active = well fitted inhibition curve with a large enough effect; inconclusive = small, poorly fitted or top-dose-only effect; inactive = no such curve, though single readings can be large or run the other way.
Possible outcomes: True (active), False (inactive)

[
  {
    "molecule": "Cc1ccccc1-c1ccc2ncnc(N(C)Cc3ccco3)c2c1",
    "testedSystem": "Rap guanine nucleotide exchange factor 4 (Homo sapiens) (UniProt Q8WZA2)",
    "assignedClass": "True"
  },
  {
    "molecule": "COc1cccc(Nc2ncc3nc(-c4cn(C)c5ccccc45)c(=O)n(C[C@H]4CCCO4)c3n2)c1",
    "testedSystem": "Rap guanine nucleotide exchange factor 4 (Homo sapiens) (UniProt Q8WZA2)",
    "assignedClass": "False"
  },
  {
    "molecule": "N#CCCn1c(=O)c(-c2ccc(Cl)cc2)nc2cnc(Nc3ccccc3)nc21",
    "testedSystem": "Rap guanine nucleotide exchange factor 4 (Homo sapiens) (UniProt Q8WZA2)",
    "assignedClass": "False"
  },
  {
    "molecule": "O=C1CC[C@@]23/C=C/C(=O)NCCCCNCCCNC(=O)/C=C/c4ccc(c2c4)OC3C1 (stereo partly specified)",
    "testedSystem": "Rap guanine nucleotide exchange factor 4 (Homo sapiens) (UniProt Q8WZA2)",
    "assignedClass": "False"
  },
  {
    "molecule": "c1csc(CNc2ccnc(-c3ccc4c(c3)OCO4)n2)c1",
    "testedSystem": "Rap guanine nucleotide exchange factor 4 (Homo sapiens) (UniProt Q8WZA2)",
    "assignedClass": "False"
  },
  {
    "molecule": "COc1ccc(C(=O)O)c(O)c1OC",
    "testedSystem": "Rap guanine nucleotide exchange factor 4 (Homo sapiens) (UniProt Q8WZA2)",
    "assignedClass": "False"
  }
]

====

Molecular target: Rap guanine nucleotide exchange factor 4 (Homo sapiens)
Assay: Confirmatory qHTS for antagonist of cAMP-regulated guanine nucleotide exchange factor 4 (EPAC2) (AID 1645885); note: nearly all actives have a fitted effect of over 25% in size
Settings: EPAC2 Rap1B-BODIPY-GDP exchange fluorescence, biochemical; series mostly up to 114 µM
Results filed as inconclusive are left out. Activity calls are given as the source filed them. Calls follow the shape of the dose curve; as a rule, active = well fitted inhibition curve with a large enough effect; inconclusive = small, poorly fitted or top-dose-only effect; inactive = no such curve, though single readings can be large or run the other way.
Possible outcomes: active, inactive

[
  {
    "compound": "COc1ccccc1-c1ccc2ncnc(N(C)Cc3ccco3)c2c1",
    "assignedClass": "active"
  },
  {
    "compound": "COCCn1c(=O)c(-c2cc(F)cc(F)c2)nc2cnc(Nc3cccc(OC)c3)nc21",
    "assignedClass": "inactive"
  },
  {
    "compound": "COc1ccc2c(c1)OCc1c-2oc2cc(OC)ccc12",
    "assignedClass": "inactive"
  },
  {
    "compound": "COc1ccc(Oc2ncc3nc(-c4cc(F)cc(F)c4)c(=O)n(C[C@H]4CCCO4)c3n2)cc1",
    "assignedClass": "inactive"
  },
  {
    "compound": "COc1ccc(-c2nc3cnc(Nc4cccc(OC)c4)nc3n(Cc3cccs3)c2=O)cc1",
    "assignedClass": "active"
  },
  {
    "compound": "COCCn1c(=O)c(-c2ccc(OC)cc2)nc2cnc(Nc3cccc(OC)c3)nc21",
    "assignedClass": "inactive"
  },
  {
    "compound": "COc1ccc(C(=O)N2CCC3(CC2)CN(c2cccc(-c4ccccc4)c2)C3)cc1",
    "assignedClass": "inactive"
  },
  {
    "compound": "COCCn1c(=O)c(-c2cccs2)nc2cnc(Nc3ccccc3)nc21",
    "assignedClass": "inactive"
  },
  {
    "compound": "COc1cc2ccc(=O)oc2cc1O",
    "assignedClass": "inactive"
  }
]

====

Listing of recorded Potency by entry.
Biological target: Glucocorticoid receptor (Homo sapiens)
Experiment: GR-GFP Redistribution (AID 450); note: potency is the fitted concentration of half-maximal effect
Conditions: U2OS GR-GFP nuclear translocation, laser cytometry, 2 h
The source made the active and inactive calls.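 The calls were made as follows: active = compounds whose dose series gives a full or clear partial fitted curve of increased nuclear translocation; inconclusive = weak partial curve or effect only at the top dose; inactive = no dose-dependent translocation response.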

[
  {
    "compound": "COc1ccc(-n2c(=O)c(-c3cc(F)cc(F)c3)nc3cnc(N4CCOCC4)nc32)cc1",
    "Potency": "> 9.22 µM (inactive)"
  },
  {
    "compound": "CN(Cc1ccco1)c1ncncc1-c1ccc2c(c1)OCO2",
    "Potency": "> 46 µM (inactive)"
  },
  {
    "compound": "CN1CCN(c2nc(-c3cccc(NS(C)(=O)=O)c3)nc3ccccc23)CC1",
    "Potency": "> 46 µM (inactive)"
  },
  {
    "compound": "COc1ccc(CNc2ccnc(-c3ccc(N(C)C)cc3)n2)c(OC)c1",
    "Potency": "> 46 µM (inactive)"
  },
  {
    "compound": "COc1cccc(Cn2c(=O)c(-c3ccc(Cl)cc3)nc3cnc(N4CCOCC4)nc32)c1",
    "Potency": "> 9.22 µM (inactive)"
  },
  {
    "compound": "Cc1ccccc1-c1nc(N2CCOCC2)c2ccccc2n1",
    "Potency": "> 46 µM (inactive)"
  },
  {
    "compound": "CN1CCN(c2cc(-c3ccccc3Cl)ncn2)CC1",
    "Potency": "> 46 µM (inactive)"
  },
  {
    "compound": "c1ccc2c(Nc3ccncc3)nc(-c3ccc4c(c3)OCO4)nc2c1",
    "Potency": "> 46 µM (inactive)"
  },
  {
    "compound": "Cn1c(=O)c(-c2ccccc2)nc2cnc(Oc3ccccc3)nc21",
    "Potency": "> 9.22 µM (inactive)"
  },
  {
    "compound": "COc1cccc(Cn2c(=O)c(CCc3ccccc3)nc3cnc(OC)nc32)c1",
    "Potency": "> 9.22 µM (inactive)"
  },
  {
    "compound": "COCCn1c(=O)c(-c2cn(C)c3ccccc23)nc2cnc(Oc3ccccc3)nc21",
    "Potency": "> 9.22 µM (inactive)"
  },
  {
    "compound": "COCCn1c(=O)c(C)nc2cncnc21",
    "Potency": "> 9.22 µM (inactive)"
  },
  {
    "compound": "O=c1ccc2cc(O)c(O)cc2o1",
    "Potency": "> 20.6 µM (inactive)"
  },
  {
    "compound": "CS(=O)(=O)Nc1cccc(-c2cncnc2NCc2cccnc2)c1",
    "Potency": "> 46 µM (inactive)"
  },
  {
    "compound": "CN1CCN(c2ncc3nc(-c4ccccc4)c(=O)n(CCC#N)c3n2)CC1",
    "Potency": "> 9.22 µM (inactive)"
  },
  {
    "compound": "O=c1cnc2cnc(Oc3cccc(Cl)c3)nc2n1CCc1ccccc1",
    "Potency": "> 9.22 µM (inactive)"
  }
]

====

Listing of recorded max response by entry.
Assay: qHTS Assay for Lipid Storage Modulators (AID 1519)
Conditions: Drosophila S3 cells, BODIPY lipid droplet/cell ratio, laser cytometry; measured here: lipid channel max response; cells loaded with oleic acid
Records with an inconclusive call do not appear.

[
  {
    "compound": "CN1CCN(c2ncc3nc(-c4cccc(C#N)c4)c(=O)n(C[C@H]4CCCO4)c3n2)CC1",
    "max response [%]": 12.1
  },
  {
    "compound": "CN(Cc1ccco1)c1nc(-c2cccc(C#N)c2)nc2ccccc12",
    "max response [%]": 12.8
  },
  {
    "compound": "Cc1nc2cnc(Nc3ccccc3)nc2n(C[C@H]2CCCO2)c1=O",
    "max response [%]": -12.3
  },
  {
    "compound": "O=C(C1CCCCC1)N1CC(=O)N2CCc3ccccc3[C@@H]2C1",
    "max response [%]": 8.95
  },
  {
    "compound": "O=C(Nc1ccccc1)N1CC[C@@]2(CCCN(C(=O)c3ccncc3)C2)C1",
    "max response [%]": 15.1
  },
  {
    "compound": "O=C(Nc1cccc(F)c1)N1CC[C@@]2(CCCN(C(=O)c3ccncc3)C2)C1",
    "max response [%]": 23.2
  },
  {
    "compound": "CC(C)CN1CC[C@@]2(CCCN(C(=O)c3ccco3)C2)C1",
    "max response [%]": 8.53
  },
  {
    "compound": "COc1ccc2c(c1)OCc1c-2oc2cc(OC)ccc12",
    "max response [%]": 8.38
  },
  {
    "compound": "Cc1cccc(CNc2ncnc3ccc(-c4ccccc4C#N)cc23)c1",
    "max response [%]": 4.86
  },
  {
    "compound": "O=C(c1cc(C(F)(F)F)cc(C(F)(F)F)c1)N1CCC2(CCCN(c3ccncc3)C2)CC1",
    "max response [%]": 16
  },
  {
    "compound": "Cc1ccccc1-c1cc(Nc2ccc(F)cc2)ncn1",
    "max response [%]": 7.96
  },
  {
    "compound": "CN1CC[C@@]2(CCCN(S(=O)(=O)c3ccccc3)C2)C1",
    "max response [%]": 16.3
  },
  {
    "compound": "O=C(O)[C@H]1CCCN(CCC=C(c2ccccc2)c2ccccc2)C1",
    "max response [%]": -26.7
  },
  {
    "compound": "O=C(c1cccc(F)c1)N1CCC2(CCN(Cc3ccccc3)CC2)CC1",
    "max response [%]": 15.1
  },
  {
    "compound": "COCC(=O)N1CCC2(CCCN(Cc3ccccc3)C2)CC1",
    "max response [%]": 27.9
  },
  {
    "compound": "C[C@@](N)(Cc1ccc(O)cc1)C(=O)O",
    "max response [%]": 18.3
  },
  {
    "compound": "COc1ccccc1CN1CCC2(CC1)CCN(C(=O)c1cccn1C)CC2",
    "max response [%]": 8.04
  },
  {
    "compound": "C#C[C@]1(OC(C)=O)CCC2C3CCC4=CC(=O)CCC4C3CC[C@]21C (some centres not stated)",
    "max response [%]": -26.2
  },
  {
    "compound": "COCCn1c(=O)c(-c2cccc(C#N)c2)nc2cnc(N3CCN(C)CC3)nc21",
    "max response [%]": 22.5
  },
  {
    "compound": "Cc1nc2cnc(N(C)C)nc2n(Cc2cccs2)c1=O",
    "max response [%]": 16.8
  },
  {
    "compound": "CO[C@]1(NC(=O)CSCC#N)C(=O)N2C(C(=O)O)=C(CSc3nnnn3C)CS[C@H]21",
    "max response [%]": -5.83
  },
  {
    "compound": "CC(=O)OCC1=C(C(=O)O)N2C(=O)[C@@H](NC(=O)CSc3ccncc3)[C@@H]2SC1",
    "max response [%]": -13.2
  },
  {
    "compound": "Cc1cccc(CNc2cc(-c3ccc(C(=O)N(C)C)cc3)ncn2)c1",
    "max response [%]": 1.9
  },
  {
    "compound": "CC(C)NC(=O)N1CC[C@@]2(CCCN(C(=O)c3ccncc3)C2)C1",
    "max response [%]": 0.996
  },
  {
    "compound": "CN1CCN(c2ncc3nc(-c4cc(F)cc(F)c4)c(=O)n(CCC#N)c3n2)CC1",
    "max response [%]": 26.1
  },
  {
    "compound": "O=c1cnc2cnc(N3CCOCC3)nc2n1C[C@H]1CCCO1",
    "max response [%]": 22.5
  },
  {
    "compound": "O=C(c1cccc(F)c1)N1CCC2(CC1)CN(c1ccccn1)C2",
    "max response [%]": 16
  },
  {
    "compound": "Cc1ccccc1-c1cncnc1NC1CCNCC1",
    "max response [%]": 16
  },
  {
    "compound": "O=S(=O)(c1ccccc1)N1CCC2(CCCN(c3ccccn3)C2)CC1",
    "max response [%]": 25.4
  },
  {
    "compound": "COCC(=O)N1CCC[C@@]2(CCN(Cc3cc(C(F)(F)F)cc(C(F)(F)F)c3)C2)C1",
    "max response [%]": 16.2
  },
  {
    "compound": "O=C(c1ccncc1)N1CCC2(CCCN(C(c3ccccc3)c3ccccc3)C2)CC1",
    "max response [%]": 17.9
  },
  {
    "compound": "CC(=O)N1CCC2(CCCN(Cc3ccccc3)C2)CC1",
    "max response [%]": 3.92
  }
]
